molecular target: BRAF (Homo sapiens); construct: purchased Eurofins Genomics KK; (BRAF); Thermo Fisher Scientific Inc. (MEK1); assay: BRAF-inhibiting activity, time-resolved fluorescence-fluorescence resonance energy transfer assay; assay type: biochemical; details: read-out: BRAF IC50; Table 3
Sequence (P15056 417-766 limits assumed): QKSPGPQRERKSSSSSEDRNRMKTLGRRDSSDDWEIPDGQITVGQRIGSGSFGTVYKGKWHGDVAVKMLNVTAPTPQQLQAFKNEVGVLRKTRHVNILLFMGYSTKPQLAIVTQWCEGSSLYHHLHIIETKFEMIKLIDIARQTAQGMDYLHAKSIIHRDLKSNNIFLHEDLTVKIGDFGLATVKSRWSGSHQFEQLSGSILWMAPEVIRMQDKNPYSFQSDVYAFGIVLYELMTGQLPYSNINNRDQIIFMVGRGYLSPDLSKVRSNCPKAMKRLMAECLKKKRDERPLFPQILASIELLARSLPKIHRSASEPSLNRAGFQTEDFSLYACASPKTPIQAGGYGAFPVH
pIC50: −log10 of the molar value.
criterion met means recorded pIC50 is 8 or above; criterion not met means it is below 8.

See these solved cases before continuing.
structureAsSmiles: CC1(NS(=O)(=O)Nc2nccc(Cc3cc(C(N)=O)c(Nc4ccc(I)cc4F)c(F)c3F)c2F)CCC1
targetSystem: BRAF (Homo sapiens)
labelValue: criterion not met
--
structureAsSmiles: CNS(=O)(=O)Nc1cccc(Cc2cc(C(N)=O)c(Nc3ccc(I)cc3F)c(F)c2F)n1
targetSystem: BRAF (Homo sapiens)
labelValue: criterion met

Okay, next one:
Exam item: decide whether the reported pIC50 for "CNS(=O)(=O)Nc1nccc(Cc2cc(C(N)=O)c(Nc3ccc4sccc4c3)c(F)c2F)c1F" is at least 8. criterion met
